conditions: 295.15 K; 101.33 kPa; Liquid; Vibrating tube method
metric: mass density (kg/m3)

* CCCCCC[n+]1ccn(C)c1.O=S(=O)([N-]S(=O)(=O)C(F)(F)F)C(F)(F)F | 1375.7
* CCCCCCCC[P+](CC)(CC)CC.O=[N+]([O-])c1c[n-]cn1 [triethyloctylphosphonium 4-nitroimidazolide] | 1030.6
* CCCCCCCC[P+](CC)(CC)CC.Cc1ncc([N+](=O)[O-])[n-]1 [triethyloctylphosphonium 2-methyl-5-nitroimidazolide] | 1030.3
* CC[P+](CC)(CC)COCCOC.O=[N+]([O-])c1cn[n-]c1 | 1141
